experimental details: Solubility of agrochemical actives in the solvents: visual observation at 0° C. after 7 days (CIPAC MT39 test)
Assay type: physicochemical
Design: key: Crystal: When the formation of active crystals is observed, the term of <> is indicated; Limpid: When the solution remains limpid (absence of solid or cloudiness), it is the term of <> which is indicated
run conditions: Active Oxyfluorfen 22% EC in the compound as solvent; 7 days at 0° C.

| compound | Aspect at 0° C. |
| --- | --- |
| CCOC(=O)C(=O)N(C)C [Compound 2, ethyl 2-(dimethylamino)-2-oxoacetate] | Limpid |
| CCCCC(CC)COC(=O)C(=O)N(C)C (stereo not shown) | Limpid |
| CCCCCCCCCCOC(=O)C(=O)N(C)C [Compound 4, n-decyl 2-(dimethylamino)-2-oxoacetate] | Limpid |
